Every entry's value here was drawn from the supplement of paper PMC7877785.

TEST SUMMARY: self-splicing fitness, log relative to wild type (ln ratio); higher = more splicing; Tetrahymena group I intron in knt gene, E. coli kanamycin selection, DiMSum; sequences stand for … in CUCUCU…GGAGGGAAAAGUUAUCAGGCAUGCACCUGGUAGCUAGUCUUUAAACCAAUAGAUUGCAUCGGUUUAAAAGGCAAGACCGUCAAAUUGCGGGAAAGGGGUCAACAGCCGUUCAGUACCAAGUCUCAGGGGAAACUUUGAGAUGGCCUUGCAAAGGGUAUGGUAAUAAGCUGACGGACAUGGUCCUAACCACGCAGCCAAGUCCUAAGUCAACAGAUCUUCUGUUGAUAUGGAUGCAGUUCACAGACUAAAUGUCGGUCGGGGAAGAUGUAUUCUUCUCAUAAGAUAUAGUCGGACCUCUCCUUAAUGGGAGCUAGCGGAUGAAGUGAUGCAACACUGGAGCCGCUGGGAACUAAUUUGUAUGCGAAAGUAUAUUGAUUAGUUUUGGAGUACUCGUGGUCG;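 further: selection with 25 µg/mL kanamycin versus none on LB agar overnight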
CONDITION INFO: 30 °C
In this section we review reported self-splicing fitness (ln) values for a set of sequences.
When you answer, write just the number.

Illustrative cases are given below, each with its answer.
// lookup self-splicing fitness (ln) for `CUCUAGCAAUAUUACGAGCG`
-2.79

Consider next the sequence `ACCCAGCAAUAUUACGUCCA` in the same way.
-1.27

Consider next the sequence `CCUAAGCAAUAUUACGUAGC` in the same way.
-4.03

Consider next the sequence `CCGCAGCAAUAUUACGCGCC` in the same way.
-2.71

Consider next the sequence `CGUUAGCAAUAUUACGCAUG` in the same way.
-1.13

---
// lookup self-splicing fitness (ln) for `UACCAGCAAUAUUACGCUAU`
-2.45

Consider next the sequence `AGGUAGCAAUAUUACGCUUA` in the same way.
-1.2

Consider next the sequence `CGUCAGCAAUAUUACGAAUA` in the same way.
-2.58

Consider next the sequence `GAACAGCAAUAUUACGGCGU` in the same way.
-0.302

Consider next the sequence `AUCCAGCAAUAUUACGAGCC` in the same way.
-3.17

====

In this section we review reported self-splicing fitness (ln) values for a set of sequences.
TEST SUMMARY: self-splicing fitness, log relative to wild type (ln ratio); higher = more splicing; Tetrahymena group I intron in knt gene, E. coli kanamycin selection, DiMSum; sequences stand for … in CUCUCU…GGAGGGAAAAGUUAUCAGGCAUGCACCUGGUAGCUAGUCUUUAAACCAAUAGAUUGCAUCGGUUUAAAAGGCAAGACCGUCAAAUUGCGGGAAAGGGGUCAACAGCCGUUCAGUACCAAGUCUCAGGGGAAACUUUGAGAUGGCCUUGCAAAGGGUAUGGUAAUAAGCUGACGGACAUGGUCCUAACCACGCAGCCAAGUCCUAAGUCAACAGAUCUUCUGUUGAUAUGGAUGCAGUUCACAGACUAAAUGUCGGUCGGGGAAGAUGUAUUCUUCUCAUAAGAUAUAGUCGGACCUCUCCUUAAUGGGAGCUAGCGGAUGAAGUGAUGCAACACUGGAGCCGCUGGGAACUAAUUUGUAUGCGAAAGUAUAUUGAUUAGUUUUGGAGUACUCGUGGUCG
CONDITION INFO: 37 °C
When you answer, write just the number.

Illustrative cases are given below, each with its answer.
// lookup self-splicing fitness (ln) for `CGACAGCAAUAUUACGCACU`
0.0742

Consider next the sequence `GCAAAGCAAUAUUACGCAUC` in the same way.
-1.4

---
// lookup self-splicing fitness (ln) for `CAGUAGCAAUAUUACGGGCU`
-1.21

Consider next the sequence `CGUCAGCAAUAUUACGAAUG` in the same way.
-0.0535

Consider next the sequence `CACCAGCAAUAUUACGCUAU` in the same way.
-2.21

====

TEST SUMMARY: self-splicing fitness, log relative to wild type (ln ratio); higher = more splicing; Tetrahymena group I intron in knt gene, E. coli kanamycin selection, DiMSum; sequences stand for … in CUCUCU…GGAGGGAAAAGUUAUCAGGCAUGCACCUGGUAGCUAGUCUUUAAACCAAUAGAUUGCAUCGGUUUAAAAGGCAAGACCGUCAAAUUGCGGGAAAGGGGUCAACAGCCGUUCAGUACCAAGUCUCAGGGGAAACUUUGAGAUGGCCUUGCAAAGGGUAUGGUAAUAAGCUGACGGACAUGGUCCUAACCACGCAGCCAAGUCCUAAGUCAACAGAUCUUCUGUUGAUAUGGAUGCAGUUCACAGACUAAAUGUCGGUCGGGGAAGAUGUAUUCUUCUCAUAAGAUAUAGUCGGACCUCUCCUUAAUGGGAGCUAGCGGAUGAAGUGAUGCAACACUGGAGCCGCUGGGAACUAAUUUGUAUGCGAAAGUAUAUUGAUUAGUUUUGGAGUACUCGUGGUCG
CONDITION INFO: 30 °C
In this section we review reported self-splicing fitness (ln) values for a set of sequences.
When you answer, write just the number.

Illustrative cases are given below, each with its answer.
// lookup self-splicing fitness (ln) for `AUUCAGCAAUAUUACGGUCU`
-0.633

Consider next the sequence `GAACAGCAAUAUUACGUUGC` in the same way.
-3.47

Consider next the sequence `CCAGAGCAAUAUUACGCAAA` in the same way.
-2.79

Consider next the sequence `UGCUAGCAAUAUUACGCCUA` in the same way.
-0.454

Consider next the sequence `GUAUAGCAAUAUUACGAGCA` in the same way.
-2.06

Consider next the sequence `CCCCAGCAAUAUUACGCUAC` in the same way.
-2.29

Consider next the sequence `UUGUAGCAAUAUUACGAGCG` in the same way.
-1.01

Consider next the sequence `GGUCAGCAAUAUUACGAGUU` in the same way.
-1.38

API: the following record is the query input.
// lookup self-splicing fitness (ln) for `CUUGAGCAAUAUUACGCUUU`
-2.88

====

TEST SUMMARY: self-splicing fitness, log relative to wild type (ln ratio); higher = more splicing; Tetrahymena group I intron in knt gene, E. coli kanamycin selection, DiMSum; sequences stand for … in CUCUCU…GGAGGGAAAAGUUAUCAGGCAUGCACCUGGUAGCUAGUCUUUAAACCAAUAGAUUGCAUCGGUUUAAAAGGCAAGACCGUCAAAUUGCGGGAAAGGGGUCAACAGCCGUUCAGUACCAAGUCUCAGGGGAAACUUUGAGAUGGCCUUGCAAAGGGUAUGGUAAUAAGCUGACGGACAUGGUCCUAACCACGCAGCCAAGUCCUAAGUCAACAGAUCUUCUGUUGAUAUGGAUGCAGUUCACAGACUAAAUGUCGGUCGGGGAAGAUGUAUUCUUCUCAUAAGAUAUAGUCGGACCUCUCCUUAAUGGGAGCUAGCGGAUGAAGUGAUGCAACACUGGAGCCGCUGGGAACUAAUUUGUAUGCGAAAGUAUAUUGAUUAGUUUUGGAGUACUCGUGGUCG
CONDITION INFO: 30 °C
In this section we review reported self-splicing fitness (ln) values for a set of sequences.
When you answer, write just the number.

// lookup self-splicing fitness (ln) for `CAUAAGCAAUAUUACGCUAU`
-2.93

Consider next the sequence `GCGCAGCAAUAUUACGAUAG` in the same way.
-2.97

---
// lookup self-splicing fitness (ln) for `GCGGAGCAAUAUUACGUACC`
-3.69

Consider next the sequence `ACGUAGCAAUAUUACGUUCA` in the same way.
-2.31

Consider next the sequence `AUCAAGCAAUAUUACGGUGA` in the same way.
-1.36

Consider next the sequence `AACAAGCAAUAUUACGACAC` in the same way.
-1.66

====

In this section we review reported self-splicing fitness (ln) values for a set of sequences.
TEST SUMMARY: self-splicing fitness, log relative to wild type (ln ratio); higher = more splicing; Tetrahymena group I intron in knt gene, E. coli kanamycin selection, DiMSum; sequences stand for … in CUCUCU…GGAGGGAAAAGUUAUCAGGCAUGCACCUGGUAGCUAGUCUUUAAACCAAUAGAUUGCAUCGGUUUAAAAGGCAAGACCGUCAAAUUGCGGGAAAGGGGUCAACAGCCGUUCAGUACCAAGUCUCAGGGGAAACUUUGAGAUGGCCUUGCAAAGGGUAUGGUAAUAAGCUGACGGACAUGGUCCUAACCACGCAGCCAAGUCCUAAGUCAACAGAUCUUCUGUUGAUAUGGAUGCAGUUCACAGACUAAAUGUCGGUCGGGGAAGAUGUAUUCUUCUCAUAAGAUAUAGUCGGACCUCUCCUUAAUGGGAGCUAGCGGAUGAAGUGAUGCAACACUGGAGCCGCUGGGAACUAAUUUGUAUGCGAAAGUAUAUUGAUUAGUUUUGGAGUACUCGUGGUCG
CONDITION INFO: 37 °C
When you answer, write just the number.

Illustrative cases are given below, each with its answer.
// lookup self-splicing fitness (ln) for `CUUAAGCAAUAUUACGGUGU`
-2.02

Consider next the sequence `GGUUAGCAAUAUUACGUCUC` in the same way.
-0.0912

Consider next the sequence `GCAGAGCAAUAUUACGCCUC` in the same way.
-2.38

Consider next the sequence `CGCGAGCAAUAUUACGUUGA` in the same way.
-2.05

Consider next the sequence `GCCAAGCAAUAUUACGGCCG` in the same way.
-2.11

Consider next the sequence `AGUGAGCAAUAUUACGCGGU` in the same way.
-3.01

Consider next the sequence `UCAGAGCAAUAUUACGGAUC` in the same way.
-2.15

Consider next the sequence `GCCAAGCAAUAUUACGAUCG` in the same way.
-2.42

---
// lookup self-splicing fitness (ln) for `UUCUAGCAAUAUUACGAAAU`
-1.75

Consider next the sequence `CAAAAGCAAUAUUACGGUAG` in the same way.
-0.148

Consider next the sequence `UAUGAGCAAUAUUACGCUUG` in the same way.
0.0607

Consider next the sequence `UUCCAGCAAUAUUACGCAGG` in the same way.
-2.57

Consider next the sequence `AAAGAGCAAUAUUACGCAAC` in the same way.
-1.77
